test: Lanthanide affinity of free LBT and HIS-LBT-Ub by calorimetry; type: binding; conditions: read-out: KD for lanthanide ions
Outcome measure: Kd (µM)

[[record]]
sequence = "GDYNKDGWYEELEL [LBT1]"
units = "µM"
endpoint_value = 5

